Assign selectivity ratio to each entry below.
- assay-comment: Therapeutic index TI (ED50 rotorod/MES) of the compound
- condition-context: mouse; read-out: TI

IN: Query: selectivity ratio; subject: CS(=O)(=O)O.C[C@H](NCc1ccc(OCc2cccc(F)c2)cc1)C(N)=O [SAFINAMIDE MESYLATE]
OUT: 78

IN: Query: selectivity ratio; subject: CNC(=O)[C@@H](C)N1CCC23CCCCC2[C@@H]1Cc1ccc(OCc2cccc(F)c2)cc13 (stereo partly drawn)
OUT: 4

IN: Query: selectivity ratio; subject: C[C@H](C(N)=O)N1CCC23CCCCC2[C@@H]1Cc1ccc(OCc2cccc(F)c2)cc13 (stereo partly drawn)
OUT: 10
